# PROCEDURE SUMMARY: First-in-human trial: pharmacokinetics in plasma and urine
# Format: in vivo
# DETAILS: human, plasma, oral, 120 mg, Schedule 1, 120 mg, Day 3, N=13; median (range)
QUANTITY KIND: Cmax (µg/mL)
Numbers only; they are read as µg/mL.

Q: What value of Cmax has been recorded for this entry: `COc1cccc2cc(-c3nc([C@H]4CC[C@H](C(=O)O)CC4)n4ncnc(N)c34)[nH]c12`
Ans: 5.45

* * *

# PROCEDURE SUMMARY: First-in-human trial: pharmacokinetics in plasma and urine
# Type: in vivo
# DETAILS: human, plasma, oral, 80 mg, Schedule 2, 80 mg, N=4; median (range); read-out: T1/2 (converted)
QUANTITY KIND: half-life (h)
Just the number in h, nothing appended.

Q: Param item = `COc1cccc2cc(-c3nc([C@H]4CC[C@H](C(=O)O)CC4)n4ncnc(N)c34)[nH]c12` ; retrieve measured half-life.
Ans: 9.22

Attribution: paper PMC4984800
